I'd appreciate it if you could supply polymerase ribozyme fitness (log ratio) values for the items below.
B1: TPR 5TU (parent)
chain: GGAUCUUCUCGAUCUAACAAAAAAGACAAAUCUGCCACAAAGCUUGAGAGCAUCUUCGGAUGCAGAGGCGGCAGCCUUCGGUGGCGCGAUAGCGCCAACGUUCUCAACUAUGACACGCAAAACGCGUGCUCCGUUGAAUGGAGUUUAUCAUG

Variants of: B1
assayComment: polymerase ribozyme fitness, log enrichment relative to wild type (log ratio); higher = more active; in vitro selection for triplet polymerase activity
Fewer inactive variants are shown than the library holds.
// return a plain number; no unit text

I am curious: what polymerase ribozyme fitness (log ratio) value has been reported for C75U U144C ?
-0.607

Item C5A A19U G86C A147C has what recorded polymerase ribozyme fitness (log ratio)?
-3.38

Query: polymerase ribozyme fitness (log ratio); subject: C5A C85U G86C A119C A120C
-3.07

Form field: reported polymerase ribozyme fitness (log ratio) of A12C A47U U55A
-1.41

Fill in the blank: the reported polymerase ribozyme fitness (log ratio) of U56A G58U A115G is ____.
-0.802

Name the reported polymerase ribozyme fitness (log ratio) value associated with the variant A19U A120U
-0.806

What value of polymerase ribozyme fitness (log ratio) has been recorded for this entry: G25A A89U C95G
-4.2

Reported polymerase ribozyme fitness (log ratio) for U55C C85G : what is it?
-1.66

Requested field: polymerase ribozyme fitness (log ratio). Item: C5G A120C
-0.488

Report polymerase ribozyme fitness (log ratio) for A41C A137C please.
-3.61

I have this variant here, A17U C54A , and I need its recorded polymerase ribozyme fitness (log ratio).
-1.45
